Every entry's value here was drawn from patent US20230295157A1.

Measured IC50 values are reported for all entries that follow.
- assaySystem: Factor XIa (Homo sapiens (Human), UniProt P03951)
- Sequence (P03951 388-625): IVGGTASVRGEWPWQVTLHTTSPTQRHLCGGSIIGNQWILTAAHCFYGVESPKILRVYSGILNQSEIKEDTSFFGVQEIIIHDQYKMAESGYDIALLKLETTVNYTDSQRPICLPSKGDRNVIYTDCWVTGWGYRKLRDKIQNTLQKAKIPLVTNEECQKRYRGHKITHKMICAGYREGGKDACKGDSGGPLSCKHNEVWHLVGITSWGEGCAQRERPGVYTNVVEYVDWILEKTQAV
- Sequence (P03951 19-387 partner): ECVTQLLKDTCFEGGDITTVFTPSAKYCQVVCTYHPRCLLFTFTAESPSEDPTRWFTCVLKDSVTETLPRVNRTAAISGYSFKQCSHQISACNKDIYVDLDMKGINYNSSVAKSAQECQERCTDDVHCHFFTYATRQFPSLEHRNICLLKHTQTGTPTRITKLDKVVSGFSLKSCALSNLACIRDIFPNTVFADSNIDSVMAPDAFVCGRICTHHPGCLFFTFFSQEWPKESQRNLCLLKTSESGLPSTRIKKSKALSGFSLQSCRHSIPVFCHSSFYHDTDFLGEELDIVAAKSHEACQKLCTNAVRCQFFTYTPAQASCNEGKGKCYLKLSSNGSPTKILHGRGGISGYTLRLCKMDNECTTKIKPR
- procedureSummary: Factor XIa inhibition assay (FLINT) utilizing a fluorophore-quencher pair peptide substrate
- Assay type: biochemical
- details: 30 min preincubation, kinetic reads over 30 min, 5Fam-[…]-K5Tamra substrate 15 μM; read-out: FXIa Kin Inh IC50
Respond with the bare value in nM.

// solved cases for IC50 follow
{"compound": "NC(=O)c1ccc(-c2c[nH]c([C@@H]3CC[C@H]4CC(c5c(-n6cnnn6)ccc(Cl)c5F)=CC(=O)N43)n2)cc1F", "assaySystem": "Factor XIa (Homo sapiens (Human), UniProt P03951)", "IC50 [nM]": 30.5}
{"compound": "[2H][C@@]12CC[C@@H](c3ncc(-c4ccnc(CO)c4F)[nH]3)N1C(=O)C=C(c1c(-n3cnnn3)ccc(Cl)c1F)C2 (relative stereo)", "assaySystem": "Factor XIa (Homo sapiens (Human), UniProt P03951)", "IC50 [nM]": 22.5}
{"compound": "C[C@H]1C[C@@H](c2ncc(-c3ccc(N)nc3F)[nH]2)N2C(=O)C=C(c3c(-n4cnnn4)ccc(Cl)c3F)C[C@H]12 (relative stereo)", "assaySystem": "Factor XIa (Homo sapiens (Human), UniProt P03951)", "IC50 [nM]": 202}

Next up:
Query IC50 for "[2H]C([2H])(O)c1nccc(-c2nc([C@@H]3CC[C@@H]4CC(c5c(-n6cnnn6)ccc(Cl)c5F)=CC(=O)N43)[nH]c2Br)c1F" 7.3
